- tgt: T1, recombinant gp120 of HIV-1 strain IIIb (HIV-1 strain IIIb, UniProt P04578 33-511)
- T1 construct: domain: gp120; also called IIIb-derived gp120; gp 120 (IIIB strain)
- measurement_description: SPR BIAcore, gp120 on chip
experimental_readout: Kd (nM)
Just the number in nM, nothing appended.

Fab QA2 (Fab, V domains shown) VH: LEQSGAEVKKPGASVKVSCQASGYRFSNFTVHWVRQAPGQRFEWMGWINPYNGNKEFSAKFQDRVTFTADTSANTAYMELRSLRSADTAVYYCARVGEWGWDDSPQDNYYMDVWGKGTTVIVSS VL: ELTQSPGTLSLSPGERATFSCRSSHQLDGSRVAWYQHKPGQAPRLVIHGVSNRASGISDRFSGSGSGTDFTLTITRVEPEDFALYYCQLYGRGNYTFGQGTKLERKR | 0.42
Fab QA1 (Fab, V domains shown) VH: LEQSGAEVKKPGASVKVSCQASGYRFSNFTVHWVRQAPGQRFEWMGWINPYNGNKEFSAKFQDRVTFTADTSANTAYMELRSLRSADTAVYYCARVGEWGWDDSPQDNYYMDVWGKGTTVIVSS VL: ELTQSPGTLSLSPGERATFSCRSSHQLDGSRVAWYQHKPGQAPRLVIHGVSNRASGISDRFSGSGSGTDFTLTITRVEPEDFALYYCQVYGWSQYTFGQGTKLERKR | 0.51

Now for a further binder.
Query (binder): Fab QA9 (Fab, V domains shown) VH: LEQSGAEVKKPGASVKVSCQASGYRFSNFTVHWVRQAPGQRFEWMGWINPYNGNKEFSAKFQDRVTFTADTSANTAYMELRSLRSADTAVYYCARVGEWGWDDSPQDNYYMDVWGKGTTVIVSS VL: ELTQSPGTLSLSPGERATFSCRSSHQLDGSRVAWYQHKPGQAPRLVIHGVSNRASGISDRFSGSGSGTDFTLTITRVEPEDFALYYCQMYGGFTYTFGQGTKLERKR ; field requested: Kd
0.61
